Method Notes: Inhibition of Mycobacterium bovis BCG cytochrome bd oxidase with ATP synthase overexpression inverted membrane vesicles
Type: cell membranes, Mycobacterium tuberculosis variant bovis, Membrane vesicle
pIC50: −log10 of the molar value.
pIC50 overview
Recorded Metric: pIC50

- Smiles Notation: "NC(=O)NC(=O)c1nc(-c2cc3ccccc3o2)c(N)nc1N"
  Observed: 4.67
- Smiles Notation: "c1ccc(CCNc2ncnc3ccccc23)cc1"
  Observed: 4.96
- Smiles Notation: "CCc1nc2ccc(Cl)cn2c1C(=O)NCc1ccc(N2CCC(c3ccc(OC(F)(F)F)cc3)CC2)cc1"
  Observed: 5.21
- Smiles Notation: "FC(F)(F)c1ccc(Oc2ccc(Nc3ncnc4ccccc34)cc2)cc1"
  Observed: 6.30
